Test system: UACC-257 melanoma
Assay: NCI-60 one-dose screen, 48 h
Settings: 10 µM unless noted
Compounds without any hit were thinned out: in the full panel of roughly 83,000, 20% have a hit. Active and inactive are the calls of the source. How the source made its calls: active means growth percent below 10; inactive means the rest.
Valid outcomes are listed here; reply with one: active, inactive

CCCCCSc1ccc2nc(NC(=O)OCC)sc2c1	inactive
CCC(C)(C)c1ccc(OCCCCCCN2CCN(c3ccc(C)c(Cl)c3)CC2)cc1	inactive
NC(CSC(c1ccccc1)(c1ccccc1)c1ccccc1)C(=O)NCC(=O)O (stereo unspecified)	inactive

Prompt line: Recorded call for CC(=O)NNC(=O)c1sc(NC(C)=O)nc1C ?
Response line: inactive

Prompt line: Entry O=Nc1c(-c2c(O)[nH]c3cc(Br)ccc23)[nH]c2ccccc12 please
Response line: active

Prompt line: Entry Oc1ccc([S+](c2ccc(O)cc2)c2ccc(O)cc2)cc1 please
Response line: inactive

Prompt line: Entry CC(=O)Nc1nc(C)c(C(=O)N/N=C/N2CCCCC2)s1 please
Response line: inactive

Prompt line: Entry COc1ccc(/C=C(/C(=O)N2CCN(c3ccc(C)cc3)CC2)c2cc(OC)c(OC)c(OC)c2)cc1N please
Response line: inactive

Prompt line: Entry O=C(Nc1cccc(Cn2c(=O)[nH]c3ccc(Oc4ncccn4)cc3c2=O)c1)c1ccc(Cl)cc1 please
Response line: inactive

Prompt line: Entry CCCCCCCCCCCCCCCCCC1=NCCN1CCNC(C)=O please
Response line: inactive

Prompt line: Entry COc1ccc(CNCCCN2C(=O)c3ccc4c5c(ccc(c35)C2=O)C(=O)N(CCCNCc2ccc(OC)c(OC)c2OC)C4=O)c(OC)c1OC please
Response line: active

Prompt line: Entry CCCCCCN(CCCCCC)CCC(=O)Nc1ccc(S(=O)(=O)c2ccc(NC(=O)CCN(CCCCCC)CCCCCC)cc2)cc1 please
Response line: inactive

Prompt line: Entry CCCOC(=O)c1c(C)n(C)c2scc[n+]12 please
Response line: inactive

Prompt line: Entry Oc1ccccc1/C=N/N=C\c1ccccc1Cl please
Response line: inactive

Prompt line: Entry CCCCCN1CCN(C(CC(=O)c2ccccc2)C(=O)c2ccccc2)CC1 (stereo unspecified) please
Response line: inactive

Prompt line: Entry CCCCCCCCCCCCCCCCNC(=S)N/N=C/c1ccc(O)cc1O please
Response line: inactive

Prompt line: Entry c1cc[c]([Bi]([c]2ccccc2)[c]2ccccc2)cc1 please
Response line: inactive

Prompt line: Entry O=C1C(Cl)=C(Nc2ccc(Nc3ccccc3)c(NC3=C(Cl)C(=O)c4ccccc4C3=O)c2)C(=O)c2ccccc21 please
Response line: inactive

Prompt line: Entry CC(=O)Nc1nc(C)c(C(=O)N/N=C/c2cccs2)s1 please
Response line: inactive

Prompt line: Entry COc1ccc2c(c1)/C(=C1/S/C(=N/c3nnc(C)s3)NC1=O)C(=O)N2Cc1ccc(Br)cc1 please
Response line: inactive

Prompt line: Entry COc1ccc(-c2nnc(SCC(=O)Nc3ccc(C(=O)/C=C/c4cc(OC)c(OC)c(OC)c4)cc3)n2-c2ccccc2)cc1OC please
Response line: inactive

Prompt line: Entry CCOP1(=O)CC(C)=C(Cl)C(P(=O)(O)O)C1 (stereo unspecified) please
Response line: inactive

Prompt line: Entry O=C(N/N=C/c1ccccc1Cl)c1cccc2ccccc12 please
Response line: inactive

Prompt line: Entry CC1(C)N=C(N)N=C(N)N1c1cccc(CCCCOc2ccccc2)c1 please
Response line: inactive

Prompt line: Entry CSCc1ncc(-c2ccc(C(F)(F)F)cc2)c(NC2CCCCCC2)n1 please
Response line: inactive

Prompt line: Entry CC(C)CCCCCOC(=O)c1ccccc1SSc1ccccc1C(=O)OCCCCCC(C)C please
Response line: inactive

###

Tested on: PC-3 prostate
Experiment: NCI-60 one-dose screen, 48 h
Settings: 10 µM unless noted
About 83,000 compounds went through this panel and 20% of them were active in at least one assay; those are over-represented in the sample as a whole. Activity calls are given as the source filed them. Rule for the calls: active = growth percent below 10; inactive = the rest.
Valid outcomes are listed here; reply with one: active, inactive

CCN(CC)CCCC(C)Nc1c(C)cnc2cc(Cl)c(C)cc12 (configuration not stated)	inactive

Prompt line: Recorded call for CCOc1ccccc1/C=N\N=C(N/N=C/c1ccccc1OCC)N/N=C/c1ccccc1OCC ?
Response line: active

Prompt line: Entry O=C(CCC(=O)N(CCO)CCO)N(CCO)CCO please
Response line: inactive

Prompt line: Entry O=C(Nc1ccc(Cl)c(Cl)c1)O/N=C\c1c(Cl)ccc([N+](=O)[O-])c1Cl please
Response line: active

Prompt line: Entry c1cc(C2CCCCC2)ccc1OCCCCCCN1CCNCC1 please
Response line: inactive

Prompt line: Entry CCOC(=O)c1cc(-c2ccc(OC)cc2)[nH]c1NNC(=O)CCOC please
Response line: inactive

Prompt line: Entry S=C(N/N=C/c1cc(Cl)cc(Cl)c1)NC12CC3CC(CC(C3)C1)C2 please
Response line: inactive

###

Test system: HCC-2998 colon
Test: NCI-60 one-dose screen, 48 h
Details: 10 µM unless noted
About 83,000 compounds went through this panel and 20% of them were active in at least one assay; those are over-represented in the sample as a whole. Calls of active or inactive are those of the source. How the source made its calls: active means growth percent below 10; inactive means the rest.
Valid outcomes are listed here; reply with one: 1.0 = active, 0.0 = inactive

Please review the entries below; each comes with its answer.
CCNc1nnc(COc2ccc(CNC(=O)CCCC/C=C/C(C)C)cc2OC)o1	0.0
COC(=O)CC(=O)C(=O)OC	0.0
Cc1cc(CSc2ccc(Cl)cc2)ccc1N	0.0
O=C1C(=O)c2ccccc2C(O)=C1CCCc1ccc(C2CCCC2)cc1	0.0
CC1(C)Oc2cc3oc(=O)ccc3cc2C[C@@H]1OCCOS(=O)(=O)c1ccc(C#N)cc1	0.0

Prompt line: Recorded call for CSCc1ncc(-c2ccc(C(F)(F)F)cc2)c(NC2CCCCCC2)n1 ?
Response line: 0.0

Prompt line: Entry NC(CSC(c1ccccc1)(c1ccccc1)c1ccccc1)C(=O)NCC(=O)O (configuration not stated) please
Response line: 0.0

Prompt line: Entry CCCCCCCCCCCCOC(=N)N(C)C please
Response line: 0.0

Prompt line: Entry C#CCCCCCCC[C@@H]1OC(=O)[C@H]([C@@H](C)CC)NC(=O)[C@H]([C@@H](C)CC)NC(=O)CC(=O)[C@@H]1C please
Response line: 0.0

###

System: KM12 colon
Assay: NCI-60 one-dose screen, 48 h (100 = growth as untreated, 0 = no growth, -100 = all killed)
Conditions: 10 µM unless noted
Compounds without any hit were thinned out: in the full panel of roughly 83,000, 20% have a hit.
Recorded endpoint: growth (%)
// return numeric value only (unit: %, not printed)

O=C(/C(Br)=C/c1ccccc1)c1ccccc1	53.3
O=C(Nc1ccc(-n2cc(-c3ccncc3)c(-c3ccc(Cl)c(O)c3)n2)cc1)Nc1ccc(Cl)c(C(F)(F)F)c1	1.21
COc1ccc(C2CC(=O)c3c(O)cc(OC4OC(COC5OC(C)C(O)C(O)C5O)C(O)C(O)C4O)cc3O2)cc1O (centres undefined)	124
COc1cc2cc3cc4cc(OC)c(OC)cc4c(C)[n+]3cc2cc1OC (tested in a mixture with another compound)	80.4
Nc1nc2c(c3cnccc13)C(c1cccc(Br)c1)Cc1cnccc1-2 (centres undefined)	13.2
CC(C)CCCCCOC(=O)c1ccccc1SSc1ccccc1C(=O)OCCCCCC(C)C	106
COc1ccc2c(c1)cn1c3ccc(O)cc3[nH]c(=O)c21	9.45
CC(O)C(N)=O (centres undefined)	103

Now, please, on to the next compound.
Prompt line: Query (compound): C[C@]12CC[C@H]3[C@@H](CC[C@H]4C[C@@H](O)CC[C@@]43C)[C@@H]1CC(=O)C2 ; field requested: growth
Response line: 108

###

System: OVCAR-8 ovarian
Experiment: NCI-60 one-dose screen, 48 h (100 = growth as untreated, 0 = no growth, -100 = all killed)
Details: 10 µM unless noted
Compounds without any hit were thinned out: in the full panel of roughly 83,000, 20% have a hit.
Recorded endpoint: growth (%)
// return numeric value only (unit: %, not printed)

N=C(c1ccccc1)N(Cc1ccccc1)Cc1ccccc1	97.9

Prompt line: Query (compound): COc1ccc(NC(=O)/C=C(C)/C=C/C=C(C)/C=C/C2=C(C)CCCC2(C)C)cc1 ; field requested: growth
Response line: 37

Prompt line: Entry C=CCNC(=S)NNc1ccc([N+](=O)[O-])cn1 please
Response line: 111

Prompt line: Entry CC/C(=N\Nc1nc2ccccc2n1C)c1ccccn1 please
Response line: 15.5

Prompt line: Entry CCOc1nc(-c2ccccc2)cc2c(O)c(C(=O)N/N=C/c3ccccc3O)[nH]c(=O)c12 please
Response line: 65.4

###

Below is a list of entries, each paired with its recorded growth value.
Tested on: COLO 205 colon
Test: NCI-60 one-dose screen, 48 h (100 = growth as untreated, 0 = no growth, -100 = all killed)
Conditions: 10 µM unless noted
Compounds without any hit were thinned out: in the full panel of roughly 83,000, 20% have a hit.
// return numeric value only (unit: %, not printed)

The cases that follow already have their growth on record.
CCOC(=O)C1=NN(c2ccccc2)C2=NC(=O)/C(=C\c3cn(-c4ccccc4)nc3-c3cc4ccccc4o3)C(=O)N12	109
N#Cc1ccc(NC2c3ccccc3CC2O)cc1 (stereo not given)	108
CC(C)(C)c1ccc([I+]c2ccc(C(C)(C)C)cc2)cc1	-42.1

Prompt line: Query (compound): CC(C)CSc1nc(-c2ccc(F)cc2)c(C#N)c(N2CCCCC2)n1 ; field requested: growth
Response line: 96.2

Prompt line: Entry COc1ccc(CN2C(=O)/C(=C\C(=O)c3ccc(OCCN4CCCCC4)cc3)c3ccccc32)cc1 please
Response line: 76.7

Prompt line: Entry COC1=CC(c2ccc[nH]2)=N/C1=C\c1[nH]c(C)c(C(=O)CCCCC(=O)NC(C)(C)C)c1C please
Response line: 44.4

Prompt line: Entry COc1cc(Cn2ccc3c2-c2oncc2CC3)cc(OC)c1 please
Response line: 26.1

Prompt line: Entry Clc1ccc(I)c2ccccc12 please
Response line: 110

Prompt line: Entry COc1cc(N)c2nccc(C)c2c1OC please
Response line: 116

Prompt line: Entry COc1ccc(/C=C2\CCCC3=C2N=C2SC=NN2C3c2ccc(OC)c(OC)c2)cc1OC (stereo not given) please
Response line: 22.7

Prompt line: Entry O=C(/C=C1\C(=O)N(Cc2ccc([N+](=O)[O-])cc2)c2ccccc21)c1ccc(OCCN2CCCC2)cc1 please
Response line: 81
